Listed here: molecules with reported IC50 for UniProtKB O60341.

OCCc1ccc(O)c(O)c1 [HT, hydroxytyrosol, reference compound] = 21.8 nM

Asked: Bench note: what IC50 did COC(=O)[C@H](O)CC(=O)OCCc1ccc(O)c(O)c1 (stereo in doubt) [MMBHTE, methyl malate-β-hydroxytyrosol ester] show?
Given back: 11.9 nM
